# STUDY SYSTEM: NADPH oxidase 4 (Homo sapiens)
# ASSAY PROCEDURE: compounds shifting NOX4 Amplex Red fluorescence – cell-based, HEK293-NOX4, tetracycline-induced, NOX inhibitor project, primary screen (AID 1160)
# EXPERIMENTAL CONTEXT: HEK293-NOX4, Amplex Red H2O2 fluorescence, 45 min; higher = more signal, called active from +8 up or from −8 down
QUANTITY: z-score
// response body must contain only the number

Field z-score (entry `CCCC=C(CCC)[C@@H](NS(=O)(=O)c1ccc(C(F)(F)F)cc1)c1ccccc1` ) reads -1.74

According to the records, this compound `CC[C@@H]1C=C(C(=O)O)[C@H](c2ccc(C#N)cc2)N1S(=O)(=O)c1ccc(C)cc1` displays z-score of -0.156

Please fill in: z-score reported for COC(=O)C1=CC(CCCO)=CC(c2cccs2)N(Cc2cccc(OC(F)(F)F)c2)C=C1C(=O)OC (centres undefined) = -0.436

Sure, the documented z-score for `COc1cccc(C)c1NC(=O)O[C@H]1[C@H](OC(=O)Nc2ccccc2-c2ccccc2)[C@H](OC(=O)Nc2ccccc2-c2ccccc2)[C@@H](OC)O[C@@H]1CO` is -0.572

---

# ASSAY PROCEDURE: probe aLefty2 binding to arrayed compounds – biochemical, biotinylated probe, 635/667 nm fluorescence, primary screen (AID 1094);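 further: score merges spot fluorescence near 667 nm with spot signal-to-noise ratio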
# EXPERIMENTAL CONTEXT: small-molecule microarray, higher = more signal
Consider the following molecules; for each one, report its composite z-score.
Would you mind answering with just the numeric figure?

Looking up `CCOC(=O)C1=CC[C@@H](c2ccccc2)N(S(=O)(=O)c2ccc(C)cc2)[C@H]1c1ccccc1` , I found its composite z-score recorded as 0.02

Record summary for CC1CC/C=C\[C@H]2OC34C=CCN(Cc5ccccc5)C(=O)[C@H]3N(C(CO)C(C)C)C(=O)[C@@H]4C2C(=O)O1 (stereo partly drawn) : reported composite z-score = -0.0042

Form: molecule = Cc1ccc(NN2C(C(O)c3c(F)cccc3Cl)C=CC3C(=O)N(C4CCCCC4)C(=O)C32)cc1 (stereo not drawn) ; composite z-score = 0.184

composite z-score reported for this molecule CC(C)c1ccc(NN2C(C(O)c3ccc(C#N)cc3)C=CC3C(=O)N(c4ccccc4)C(=O)C32)cc1 (stereo not drawn) : 0.286

Please fill in: composite z-score reported for COC(=O)C1(CC(C)C)C=C2C(=C(c3ccccc3)C(=O)C2C)CN1 (stereo not drawn) = 1.1

response.value for CCCCC[C@H]1OC[C@@]23C=C(Br)[C@@H](CC12)[C@@]1(CO1)C3=O (stereo partly drawn) (field: composite z-score) = -0.231

The molecule listed as `O=C(NCCN1CCOCC1)[C@@H]1c2ccccc2C(=O)N(Cc2ccccc2Cl)[C@H]1c1ccc(CO)cc1` shows composite z-score equal to -0.547

Lab note: `CCCCCCc1nc(Cc2cc(OC)c(OC)c(OC)c2)cc2c1[Si](C(C)C)(C(C)C)OC2` gave composite z-score of -0.0985

---

# STUDY SYSTEM: Dickkopf-related protein 1 (Homo sapiens)
# ASSAY PROCEDURE: small molecules binding DKK1 protein – biochemical, small-molecule microarray, 635 nm fluorescence scan, primary screen (AID 1106);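 further: score merges emission near 667 nm with signal to noise over three replicate slides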
# EXPERIMENTAL CONTEXT: higher = more signal
Where composite z-score equals or exceeds -0.04, the correct label is Fulfilled; where it does not, the label is Not fulfilled.

[ask] In plain terms: is recorded composite z-score at least -0.04 for `O=C1N(CCS(=O)(=O)c2ccccc2)c2ccccc2[C@H]2OC(c3ccc(OCCCO)cc3)=N[C@@]12Cc1ccccc1` ?
[reply] Fulfilled

[ask] Does composite z-score meet or surpass -0.04 for COC(=O)C1(CC(C)C)C=C2C(=C(c3ccccc3)C(=O)C2C)CN1 (stereo unspecified) ?
[reply] Not fulfilled

[ask] Determine whether measured composite z-score meets or exceeds -0.04 for `Cc1ccc(S[C@]2(C(=O)NCC(F)(F)F)CC(=O)N(Cc3cc(C(F)(F)F)cc(C(F)(F)F)c3)[C@@H]2c2ccc(CO)cc2)cc1`
[reply] Not fulfilled

[ask] composite z-score >= -0.04 for `COc1ccc(C#Cc2ccc3c(c2)[C@]2(C(=O)N3)[C@H](c3ccc(O)cc3)N3[C@H](c4ccccc4)[C@H](c4ccccc4)OC(=O)[C@H]3[C@@H]2C(=O)Nc2nc3ccccc3s2)cc1` ?
[reply] Fulfilled

[ask] Evaluate CC1CC/C=C\[C@H]2OC34C=CCN(Cc5ccccc5)C(=O)[C@H]3N(C(CO)C(C)C)C(=O)[C@@H]4C2C(=O)O1 (stereo partly specified) : composite z-score at minimum -0.04?
[reply] Not fulfilled

[ask] Quick check, composite z-score >= -0.04? `C=C[C@H]1C(C(=O)OCC)=CC[C@@H](c2ccccc2)N1S(=O)(=O)c1ccc(C)cc1`
[reply] Fulfilled

[ask] Is it the case that COC(=O)C1=CC(CCCO)=CC(c2ccc(CN3CCCC3)cc2)N(Cc2cccc(OC(F)(F)F)c2)C=C1C(=O)OC (stereo unspecified) has composite z-score reaching or exceeding -0.04?
[reply] Not fulfilled

[ask] Record `O=C(O)[C@@H]1C[C@@H]2C(=O)N3CCC[C@H]3C(=O)N2[C@@H]1c1ccc(O)cc1` ; criterion: composite z-score no lower than -0.04. Met?
[reply] Fulfilled

[ask] Form field: composite z-score at least -0.04? Entry: `COc1ccc([Si](C)(C)[C@H]2[C@H](CC(=O)N3Cc4ccccc4C[C@H]3CO)O[C@@]3(C(=O)N(Cc4ccc(N5CCOC5=O)cc4)c4ccccc43)[C@@H]2C)cc1`
[reply] Fulfilled

[ask] Determine whether this compound has composite z-score no lower than -0.04: `COC(=O)[C@@]1(Cc2ccc(OC)cc2)[C@H]2c3cc(C(=O)N4CCCC4)n(CCc4c[nH]c5ccc(OC)cc45)c3C[C@H]2CN1C(=O)c1ccccc1`
[reply] Not fulfilled

[ask] Is reported composite z-score greater than or equal to -0.04 here: `CC#CCO[Si](C#Cc1ccccc1)(C(C)C)C(C)C`
[reply] Not fulfilled

[ask] Decide: composite z-score of `NCCCCCNC(=O)[C@@H]1C[C@@H]2C(=O)N[C@@H](CCCCN)C(=O)N2[C@@H]1c1ccc(O)cc1` >= -0.04?
[reply] Fulfilled

[ask] # check: composite z-score of `CN(C)C(=O)[C@@]1(Cc2ccccc2)N=C(c2ccc(OCCCO)cc2)O[C@H]1c1ccccc1` is greater than or equal to -0.04
[reply] Not fulfilled

[ask] Item CC1CC/C=C\[C@H]2OC34C=CCN(C(C)(C)C)C(=O)[C@H]3N(CCCCCO)C(=O)[C@@H]4C2C(=O)O1 (stereo partly specified) with composite z-score of -0.04 or above?
[reply] Not fulfilled

[ask] Please tell me: is the compound CCCCCC1=C2CNC(C)(C(=O)OC)C=C2C(C)C1=O (stereo unspecified) at or over -0.04 in terms of composite z-score?
[reply] Not fulfilled

Provenance of the data: PubChem BioAssay
